Source: paper PMC9814232

EXPERIMENTAL_SYSTEM: SRC (Gallus gallus, UniProt P00523)
PROPERTY: pIC50
Schema: pIC50 number; meaning minus log10 of the concentration expressed in molar units.

Requested field: pIC50. Item: C=CC(=O)Nc1ccc(CN2C(=O)N(c3cc(OC)cc(OC)c3)Cc3cnc(Nc4ccc(N5CCN(C)CC5)cc4)nc32)cc1 [FIIN-2] 6.48

====

EXPERIMENTAL_SYSTEM: FGFR4(V550L) (Homo sapiens, UniProt P22455, V550L)
Construct: FGFR4 (residues 445−753); 6×His (N, cleaved yes)
Sequence (P22455 445-753 V550L): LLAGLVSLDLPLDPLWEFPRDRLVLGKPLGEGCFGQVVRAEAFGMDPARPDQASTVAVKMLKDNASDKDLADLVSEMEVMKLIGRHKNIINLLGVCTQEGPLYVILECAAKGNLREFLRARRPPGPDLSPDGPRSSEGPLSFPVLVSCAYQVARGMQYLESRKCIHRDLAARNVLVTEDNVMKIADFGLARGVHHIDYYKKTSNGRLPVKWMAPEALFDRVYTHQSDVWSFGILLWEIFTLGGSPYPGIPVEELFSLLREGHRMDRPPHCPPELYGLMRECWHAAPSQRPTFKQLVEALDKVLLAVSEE
TEST_DESCRIPTION: ADP-Glo kinase inhibition assay, FGFR4(V550L) gatekeeper mutant
SETTINGS: kinase activity, ADP-Glo, 10 μM ATP, n = 3
PROPERTY: IC50 (µM)
Numeric answer only, unit µM assumed.

Fill in the recorded IC50 for this molecule, with FGFR4(V550L) (Homo sapiens, UniProt P22455, V550L) as test system: C=CC(=O)Nc1ccc(CN2C(=O)N(c3cc(OC)cc(OC)c3)Cc3cnc(Nc4ccc(N5CCN(C)CC5)cc4)nc32)cc1 0.255
